tested on: BRAF V600E (Homo sapiens (Human), UniProt P15056, V600E)
Sequence (P15056 whole entry V600E): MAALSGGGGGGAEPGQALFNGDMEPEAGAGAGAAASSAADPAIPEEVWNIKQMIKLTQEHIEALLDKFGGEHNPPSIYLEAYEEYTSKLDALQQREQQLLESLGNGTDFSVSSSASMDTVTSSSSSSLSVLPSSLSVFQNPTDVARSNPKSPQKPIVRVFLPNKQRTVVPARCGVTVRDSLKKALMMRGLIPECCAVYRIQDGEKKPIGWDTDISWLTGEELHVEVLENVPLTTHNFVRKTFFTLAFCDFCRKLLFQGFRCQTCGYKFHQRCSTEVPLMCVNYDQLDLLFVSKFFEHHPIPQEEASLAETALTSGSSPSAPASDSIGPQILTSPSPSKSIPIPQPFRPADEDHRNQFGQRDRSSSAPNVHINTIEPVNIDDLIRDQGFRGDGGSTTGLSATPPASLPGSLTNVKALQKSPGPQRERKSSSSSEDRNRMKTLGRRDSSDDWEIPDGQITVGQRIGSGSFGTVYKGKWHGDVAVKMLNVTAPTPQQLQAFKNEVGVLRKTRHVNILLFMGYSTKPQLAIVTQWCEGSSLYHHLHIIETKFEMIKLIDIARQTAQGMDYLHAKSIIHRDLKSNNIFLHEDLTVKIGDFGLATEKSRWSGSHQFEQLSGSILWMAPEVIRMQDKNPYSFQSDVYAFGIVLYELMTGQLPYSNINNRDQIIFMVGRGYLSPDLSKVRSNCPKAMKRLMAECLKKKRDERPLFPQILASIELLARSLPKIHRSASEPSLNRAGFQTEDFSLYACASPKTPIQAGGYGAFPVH
experiment summary: Inhibitory activity against kinase BRAF V600E, Z'-LYTE method (Invitrogen)
Type: biochemical
run conditions: 1 μM compound; read-out: Inhibition (% inhibition at 1 μM) against BRAF V600E
reported property: inhibition at 1 µM

Below: 2 molecules and their reported inhibition at 1 µM.
# molecule, inhibition at 1 µM
rows = [
    ("O=C(Nc1ccc(F)cc1)Nc1ccc(F)c(Oc2ccc3ncc(N4CCOCC4)nc3c2)c1 [Compound C053]", "> 89%"),
    ("O=C(Nc1cccc(Oc2ccc3nccnc3c2)c1)Nc1ccc(Cl)c(C(F)(F)F)c1 [Compound C001]", "> 89%"),
]

Please supply the value of reported inhibition at 1 µM for the item O=C(Nc1cc(F)cc(Oc2ccc3ncc(N4CCOCC4)nc3c2)c1)Nc1cccc(C(F)(F)F)c1 [Compound C032]
70 to 89%

Please report inhibition at 1 µM for the following molecule: O=C(Nc1ccc(F)c(Oc2ccc3ncc(N4CCNCC4)nc3c2)c1)Nc1ccc(Cl)c(C(F)(F)F)c1 [Compound C066]
> 89%

Respond only with inhibition at 1 µM recorded for O=C(Nc1ccc(Oc2ccc3ncc(N4CCNCC4)nc3c2)cc1)Nc1cccc(Cl)c1 [Compound C091]
> 89%

Give me measured inhibition at 1 µM, please, for this molecule: O=C(Nc1cccc(Oc2ccc3nccnc3c2)c1)c1cccc(F)c1 [Compound C004]
70 to 89%

Assign inhibition at 1 µM to the following record: O=C(Nc1ccc(Oc2ccc3nccnc3c2)cc1F)c1cncc(C(F)(F)F)c1 [Compound C099]
< 70%

Reference source: patent US10590106B2
